Readings of GI50 for the listed compounds
test system: SN12C; assay: NCI tumour cell line growth inhibition, 48 h
Activity calls are given as the source filed them. Cut-off read from the data, not from the text of the source: active = GI50 up to about 1.1 µM and inactive = higher.

| COMPOUND | GI50 |
| --- | --- |
| CCCCOC(=O)c1cc(C(=CCC[C@H]2CC[C@@]3(C)[C@@H](CC[C@@H]4[C@@H]3CC[C@]3(C)[C@@H](C(C)CCCC(C)C)CC[C@@H]43)C2)c2cc(Cl)c(O)c(C(=O)OCCCC)c2)cc(Cl)c1O (stereo not given in full) | > 50 µM (inactive) |
| CCOC(=O)NN(C(=O)OCC)C(C(=O)c1ccccc1)N(NC(=O)OCC)C(=O)OCC | > 100 µM (inactive) |
| CC(C)(C)C1=NN=C2c3ccccc3C(=O)C21 (stereo not given) | 42.6 µM (inactive) |
| COc1ccccc1-c1cc(=O)c2cc(C)c(C)c(C(=O)O)c2o1 | > 100 µM (inactive) |
| CCc1c(C#N)c(=O)[nH]c(=O)n1CCN1CCN(C(=O)NCCCCCCNC(=O)N2CCN(CCn3c(CC)c(C#N)c(=O)[nH]c3=O)CC2)CC1 | > 100 µM (inactive) |
